Tested on: UO-31
Test: NCI tumour cell line growth inhibition, 48 h
The source made the active and inactive calls. No stated cut-off is given here; in the data, active = GI50 up to about 1.1 µM and inactive = higher.
Below, each entry is listed with its recorded GI50.
Measurement Label: GI50

Compound: CCN(CC)CCn1c(=O)c2ccccc2n2c3c(=O)n(C)c(=O)n(C)c3nc12
System Under Test: UO-31
Result: 2.11 µM (inactive)

Compound: CC(CO)(Nc1ccc([N+](=O)[O-])cc1[N+](=O)[O-])C(=O)O (stereo not given)
System Under Test: UO-31
Result: 15.9 µM (inactive)

Compound: CCOC(=O)COc1ccc(OCC(=O)OCC)c2c1C(=O)CCCC2=O
System Under Test: UO-31
Result: > 100 µM (inactive)

Compound: O=C(CC(=O)N1N=C(N2CCCCC2)CC1c1ccccc1)Nc1ccccc1 (stereo not given)
System Under Test: UO-31
Result: > 100 µM (inactive)

Compound: C/C(=N\NC(N)=S)c1ccc(C)c(C)c1
System Under Test: UO-31
Result: 52.1 µM (inactive)

---

Tested on: MDA-MB-435
Test: NCI tumour cell line growth inhibition, 48 h
Calls of active or inactive are those of the source. Cut-off read from the data, not from the text of the source: active = GI50 up to about 1.1 µM and inactive = higher. Numbered stars: 1 amine (or outer) side, 2 acyl side, 3 side chain; on linkers, the order of the positions; unused ones are H or OH. Bridge positions count the residues as written; N and C are the ends. Square brackets hold non-standard residues; d marks the D form. Peptide text beside a SMILES is read from it. I, II: the chains in the order shown. Actinocin(9to1) = Cc1c2oc3c(C)ccc(C(=O)[*:1])c3nc-2c(C(=O)[*:2])c(N)c1=O; NMeH = CN[CH](Cc1c[nH]cn1)C(=O)O; Sar = CNCC(=O)O
Below, each entry is listed with its recorded GI50.

Compound: CC(=O)OC[C@@]12C[C@H]3C(=O)C(C)(C)C[C@H]3[C@]1(C)[C@@H](OC(C)=O)[C@]1(O)[C@H]([C@@H](OC(=O)c3ccccc3)[C@@H](C)[C@H]1OC(C)=O)[C@H]2OC(C)=O
GI50: > 20 µM (inactive)
//
Compound: O=C(CC(=O)N1N=C(N2CCCCC2)CC1c1ccccc1)Nc1ccccc1 (stereo not given)
GI50: > 100 µM (inactive)
//
Compound: O=C1/C(=N\NC(=S)NC2CCCCC2)c2cc([N+](=O)[O-])ccc2N1CN1CCOCC1
GI50: 6.79 µM (inactive)
//
Compound: Cc1c2oc3c(C)ccc(C(=O)NC4C(=O)NC(C(C)C)C(=O)N5CCCC5C(=O)N(C)CC(=O)N(C)C(Cc5cnc[nH]5)C(=O)OC4C)c3nc-2c(C(=O)NC2C(=O)NC(C(C)C)C(=O)N3CCCC3C(=O)N(C)CC(=O)N(C)C(Cc3cnc[nH]3)C(=O)OC2C)c(N)c1=O (stereo not given) (I: TVP[Sar][NMeH] / II: TVP[Sar][NMeH]; ester I:1-I:C, II:1-II:C; linker I:N-II:N via Actinocin(9to1); configuration not given here)
GI50: 63.4 µM (inactive)
//
Compound: CN(C)CCCNc1ccc2nnn3c4ccc(OC(=O)c5ccccc5)cc4c(=O)c1c23
GI50: 6.4 µM (inactive)
//
Compound: O=C(CSc1nc2ccccc2c2ccccc12)c1ccccc1
GI50: > 100 µM (inactive)
//
Compound: CC12CCC(/C(=N/c3ccc([N+](=O)[O-])cc3)C1=O)C2(C)C (stereo not given)
GI50: 17.1 µM (inactive)
//
Compound: c1ccc([P+](CCCCCC[P+](c2ccccc2)(c2ccccc2)c2ccccc2)(c2ccccc2)c2ccccc2)cc1
GI50: 15.2 µM (inactive)
//
Compound: COc1ccc(OC)c(CNc2ccc(C(=O)O)cc2)c1
GI50: > 100 µM (inactive)
//
Compound: O=c1[nH]c2ccccc2c2oc(-c3ccccc3)nc12
GI50: 18.4 µM (inactive)
//
Compound: COP(=O)(OC)C(N)CCSC (stereo not given)
GI50: > 100 µM (inactive)
//
Compound: COC(=O)c1cn(CCCCO)nn1
GI50: > 100 µM (inactive)
//
Compound: O=C(c1ccc(Cl)cc1)N1CCN=C1c1cc2ccccc2c2ccccc12
GI50: 15.7 µM (inactive)
//
Compound: CCOC(=O)c1c(N2CCN(C)CC2)[nH]c(=O)c(C(c2c(Cl)cccc2Cl)c2c(O)c(C(=O)OCC)c(N3CCN(C)CC3)[nH]c2=O)c1O
GI50: 25.8 µM (inactive)
//
Compound: Cc1n[nH]c(=O)n1/N=C/c1ccco1
GI50: > 100 µM (inactive)
//
Compound: CC(CO)(Nc1ccc([N+](=O)[O-])cc1[N+](=O)[O-])C(=O)O (stereo not given)
GI50: 21.6 µM (inactive)
//
Compound: O=Cc1[nH]c(=O)[nH]c(=O)c1C(=O)O
GI50: > 100 µM (inactive)
//
Compound: COC(=O)c1ccccc1C1CN=NC12Cc1ccc3ccccc3c1C2=O (stereo not given)
GI50: 30.7 µM (inactive)
//
Compound: O=C1C[C@H](Sc2ccccc2)C2(OCCO2)[C@H]2ON3CCC[C@@H]3[C@@H]12
GI50: 1.67 µM (inactive)
//
Compound: O=C1N=C(SC(SC2=NC(=O)C3(NN2)c2ccccc2-c2ccccc23)=C(SC2=NC(=O)C3(NN2)c2ccccc2-c2ccccc23)SC2=NC(=O)C3(NN2)c2ccccc2-c2ccccc23)NNC12c1ccccc1-c1ccccc12
GI50: > 10 µM (inactive)
//
Compound: CC1(C)OCC(COC(=O)C=[N+]=[N-])O1 (stereo not given)
GI50: > 100 µM (inactive)
//
Compound: Cc1sc(Cc2ccccc2)nc1-c1ccc(N)cc1
GI50: 17.7 µM (inactive)
//
Compound: C/C=C/[C@@H]1[C@H]2C(=O)[C@]3(Cl)[C@@H](/C=C/C)[C@@H]3C(=O)[C@@]12Cl
GI50: > 100 µM (inactive)
//
Compound: N#CC1=C(N)OC2=C(CCCc3ccc([N+](=O)[O-])cc32)C1c1ccccc1 (stereo not given)
GI50: 1.42 µM (inactive)
//
Compound: COc1cc(Nc2nc3cc(C(F)(F)F)ccc3n3cccc23)cc(OC)c1OC
GI50: 9.46 µM (inactive)
//
Compound: CC(NC(=O)Cc1ccccc1)NC(=O)C(C)C(=O)Nc1ccccc1 (stereo not given)
GI50: > 100 µM (inactive)
//
Compound: O=c1cc(NNc2cccc3ccccc23)[nH]c(=O)[nH]1
GI50: 17.1 µM (inactive)
//
Compound: COc1cc(C2=C(c3cc(OC)c4ccccc4c3OC)C(=O)c3ccccc3C2=O)c(OC)c2ccccc12
GI50: > 100 µM (inactive)
//
Compound: CCOC(=O)CC(=O)NC1CC2CCC1(C)C2(C)C (stereo not given)
GI50: > 100 µM (inactive)
//
Compound: NCCCNc1ccc2c(c1)[n+]([O-])c1ccccc1[n+]2[O-]
GI50: 31.8 µM (inactive)
//
Compound: C[N+](C)(C)C1=NNC2=Nc3ccccc3SC2=C1
GI50: 22.2 µM (inactive)
//
Compound: C#CCOC(=O)C=[N+]=[N-]
GI50: > 10 µM (inactive)
//
Compound: C=C(C1=CC(=O)C(C)(C)O1)[C@@H]1CC=C([C@@H]2CC[C@H]3[C@@]2(C)CC[C@H]2C(C)(C)C(=O)[C@H](OC(=O)CC(C)(O)CC(=O)O)C[C@]32C)[C@H](O)O1 (stereo not given in full)
GI50: 15.1 µM (inactive)
//
Compound: CC(C)(C)OC(=O)NC(Cc1ccc(OCc2ccccc2)cn1)C(=O)N1CCCCC1 (stereo not given)
GI50: 19.4 µM (inactive)
//
Compound: O=C(O)/C(=C/C(=O)c1ccc(Cl)cc1)NNc1ccc([N+](=O)[O-])cc1[N+](=O)[O-]
GI50: 67.9 µM (inactive)

---

Test system: Malme-3M
Test: NCI tumour cell line growth inhibition, 48 h
Activity calls are given as the source filed them. Rule as the data show it: active = GI50 up to about 1.1 µM and inactive = higher.
Below, each entry is listed with its recorded GI50.
Measurement Label: GI50

Molecule: CC1CC(=O)NC2CC1C2(C)C (stereo unspecified)
Result: > 100 µM (inactive)
//
Molecule: Fc1ccccc1-c1nn2c(C34CC5CC(CC(C5)C3)C4)nnc2s1
Result: > 100 µM (inactive)
//
Molecule: Cc1cc(N2CCN(C)CC2)n2nc(-c3ccc(Cl)cc3)nc2n1
Result: > 100 µM (inactive)
//
Molecule: CN1C=COC1N=C1CCCCC1 (stereo unspecified)
Result: > 100 µM (inactive)
//
Molecule: COC(=O)c1ccccc1C1CN=NC12Cc1ccc3ccccc3c1C2=O (stereo unspecified)
Result: 30.8 µM (inactive)
//
Molecule: O=C1CN(c2ccc(Cl)cc2)C(=O)CN1NCNN1CC(=O)N(c2ccc(Cl)cc2)CC1=O
Result: > 100 µM (inactive)
//
Molecule: O=C1c2ccccc2C(=O)N1c1nc(-c2ccc(Cl)cc2)cc(N2N=C(c3ccc(Br)cc3)CC2c2ccccc2)n1 (stereo unspecified)
Result: > 44.7 µM (inactive)
//
Molecule: CC(=O)Oc1cc(OC(C)=O)c(OC(C)=O)c2c1CC1C(=O)C3(CCc4ccccc43)C(=O)C1C2 (stereo unspecified)
Result: 7.57 µM (inactive)
//
Molecule: Cc1csc2c(=O)n(C3OC(CO)C(O)C3O)c(=O)[nH]c12 (stereo unspecified)
Result: > 100 µM (inactive)
//
Molecule: CCOC(=O)CC(=O)NC1CC2CCC1(C)C2(C)C (stereo unspecified)
Result: > 100 µM (inactive)
//
Molecule: COc1cc2c(cc1OC)C(Cl)C(c1ccc(F)cc1)=C2Cl (stereo unspecified)
Result: 13.2 µM (inactive)

Values compiled from ChEMBL document CHEMBL1201862.
